// provenance: the Human Domainome abundance scans (Beltran et al. 2025)

B1: Proto-oncogene vav, residues 782 to 842; numbered along this chain, P15498 (parent)
chain: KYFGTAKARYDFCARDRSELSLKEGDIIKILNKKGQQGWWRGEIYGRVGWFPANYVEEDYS

variants of: B1; experiment: abundance fitness (aPCA) (normalised: wild type 0, dead -1); higher = more abundant; growth selection in yeast, the domain comes from the species named; conditions: Homo sapiens
Lab note: anything with abundance fitness at or over -0.3 counts as satisfied; the rest go in not satisfied.

Item KYFGTAKARYDFCARDRSELSLKEGDIIKILNKKGQQGWWRGEIYGRVGWFPANYVEEDYF [S61F] with abundance fitness of -0.3 or above? satisfied

Item KYFGTAKARYDFCARDRSELSIKEGDIIKILNKKGQQGWWRGEIYGRVGWFPANYVEEDYS [L22I] with abundance fitness of -0.3 or above? satisfied

Item KYFGTAKARYDFCARDRSELSLKEGDIIKILNKKGQQGWWRGEIYGRVGWFPANYVEEGYS [D59G] with abundance fitness of -0.3 or above? satisfied

Item KYFGTAKARYDFCARDRSELSLKEGDIIKILNKKPQQGWWRGEIYGRVGWFPANYVEEDYS [G35P] with abundance fitness of -0.3 or above? satisfied

Item KWFGTAKARYDFCARDRSELSLKEGDIIKILNKKGQQGWWRGEIYGRVGWFPANYVEEDYS [Y2W] with abundance fitness of -0.3 or above? not satisfied

Item KYFGTAKARYDFCARDRSELSLKEGDIIKILNKKGQQGSWRGEIYGRVGWFPANYVEEDYS [W39S] with abundance fitness of -0.3 or above? not satisfied

Item KYFGTAKARYDFCARDRSELSLKEGDIIKILNKKGQQGWWQGEIYGRVGWFPANYVEEDYS [R41Q] with abundance fitness of -0.3 or above? satisfied

Item KYFGTAKARYDFCARDRSELSLKEGDIIKILNKKGQQGWWRGERYGRVGWFPANYVEEDYS [I44R] with abundance fitness of -0.3 or above? satisfied

Item KYFGTAKARYDFCARDRSELSLKEGDIIKILNKKGQQGWRRGEIYGRVGWFPANYVEEDYS [W40R] with abundance fitness of -0.3 or above? not satisfied

Item KYFGTAKARYDFCARDRSELSLKEGDIIKILNKKGQQGWWRGEIYGRVVWFPANYVEEDYS [G49V] with abundance fitness of -0.3 or above? not satisfied

Item KYFGTAKARYDFCARDRSELSLKEGDIIKILNKKGQQGWWRGEIYGRVGWFPANYVEEWYS [D59W] with abundance fitness of -0.3 or above? satisfied

Item KYFGTAKARYDFCARDRSELSLKEGDIIKILNKKGQQGWWRGTIYGRVGWFPANYVEEDYS [E43T] with abundance fitness of -0.3 or above? not satisfied

Item KYFGTAKARYDFCARDRWELSLKEGDIIKILNKKGQQGWWRGEIYGRVGWFPANYVEEDYS [S18W] with abundance fitness of -0.3 or above? satisfied

Item KYFGTAKARYDFLARDRSELSLKEGDIIKILNKKGQQGWWRGEIYGRVGWFPANYVEEDYS [C13L] with abundance fitness of -0.3 or above? satisfied

Item KYFGTAKARYDFCARDRSELSLKEGDIIKILNKKKQQGWWRGEIYGRVGWFPANYVEEDYS [G35K] with abundance fitness of -0.3 or above? satisfied

Item KYFGTAKARYDFCAQDRSELSLKEGDIIKILNKKGQQGWWRGEIYGRVGWFPANYVEEDYS [R15Q] with abundance fitness of -0.3 or above? satisfied

Item KYFGTAKARYDFCARDRSELSLKEGDIIKILNKKGQQGWWRGEIYGRVGWFPANYVEEDSS [Y60S] with abundance fitness of -0.3 or above? satisfied

Item KYFGTAKARYDFCARDRSELSLKEGDIIKILNKKGQQGWWRGEIYGRVGWFPANYVEDDYS [E58D] with abundance fitness of -0.3 or above? not satisfied

Item KYFGTAKARYDFCARDRSELSLKEGDIIKILNKKGQQGWWRGEIYGRVGWFPSNYVEEDYS [A53S] with abundance fitness of -0.3 or above? satisfied

Item KYFGTAKARYDFCARDRSELSLKEGDIIKILNKKGQQGWWRGEIYGRVGWFPLNYVEEDYS [A53L] with abundance fitness of -0.3 or above? not satisfied

Item KYFGTAKARYDVCARDRSELSLKEGDIIKILNKKGQQGWWRGEIYGRVGWFPANYVEEDYS [F12V] with abundance fitness of -0.3 or above? not satisfied

Item KYFGTAKARYDRCARDRSELSLKEGDIIKILNKKGQQGWWRGEIYGRVGWFPANYVEEDYS [F12R] with abundance fitness of -0.3 or above? not satisfied

Item KYFGTAKARYDFCARDKSELSLKEGDIIKILNKKGQQGWWRGEIYGRVGWFPANYVEEDYS [R17K] with abundance fitness of -0.3 or above? satisfied

Item KYFGRAKARYDFCARDRSELSLKEGDIIKILNKKGQQGWWRGEIYGRVGWFPANYVEEDYS [T5R] with abundance fitness of -0.3 or above? satisfied

Item KYFITAKARYDFCARDRSELSLKEGDIIKILNKKGQQGWWRGEIYGRVGWFPANYVEEDYS [G4I] with abundance fitness of -0.3 or above? satisfied

Item KYFGTAKARYDFCARDRSELSLKEGDIIKILNKKGIQGWWRGEIYGRVGWFPANYVEEDYS [Q36I] with abundance fitness of -0.3 or above? satisfied

Item KYFGTAKARYDFCARDRSYLSLKEGDIIKILNKKGQQGWWRGEIYGRVGWFPANYVEEDYS [E19Y] with abundance fitness of -0.3 or above? not satisfied

Item KYFGTAKARYDFCARDRSELSLKEGDIIKILNKKGQQGWWRGEIYGGVGWFPANYVEEDYS [R47G] with abundance fitness of -0.3 or above? not satisfied

Item KYFGTAKARYDFCARDRSELSLKEGDIIIILNKKGQQGWWRGEIYGRVGWFPANYVEEDYS [K29I] with abundance fitness of -0.3 or above? not satisfied

Item KYFGTAKARYDFCARDRSELSLKEGDIIKILNKKGQQGWWRGEIYGRVGWFPATYVEEDYS [N54T] with abundance fitness of -0.3 or above? satisfied

Item KYFGTAKARYDFCARDRSWLSLKEGDIIKILNKKGQQGWWRGEIYGRVGWFPANYVEEDYS [E19W] with abundance fitness of -0.3 or above? not satisfied

Item KYFGTAKARYDFCARDRSELSLKEGDIIKIANKKGQQGWWRGEIYGRVGWFPANYVEEDYS [L31A] with abundance fitness of -0.3 or above? not satisfied

Item KYFGTAKARYDFCARDRSELSLKEGDIIKILNKKGQFGWWRGEIYGRVGWFPANYVEEDYS [Q37F] with abundance fitness of -0.3 or above? satisfied

Item KYFGTAKARYDFCARDRSELSLKEGDIIKILNKKGQQGWWRGEIYGRVGWFPANYVEQDYS [E58Q] with abundance fitness of -0.3 or above? satisfied

Item RYFGTAKARYDFCARDRSELSLKEGDIIKILNKKGQQGWWRGEIYGRVGWFPANYVEEDYS [K1R] with abundance fitness of -0.3 or above? not satisfied

Item KYFGTAKARYDFCARDRSELSLKEGDIIKILNKKGQQGWWRGEIYGRVGWFPANYHEEDYS [V56H] with abundance fitness of -0.3 or above? not satisfied

Item KYFSTAKARYDFCARDRSELSLKEGDIIKILNKKGQQGWWRGEIYGRVGWFPANYVEEDYS [G4S] with abundance fitness of -0.3 or above? satisfied

Item KYFGTAKARYDFCARDRSELSLKEGLIIKILNKKGQQGWWRGEIYGRVGWFPANYVEEDYS [D26L] with abundance fitness of -0.3 or above? not satisfied

Item KYFGTAKARYDFCARDRSELSLKEGDIIKILNKSGQQGWWRGEIYGRVGWFPANYVEEDYS [K34S] with abundance fitness of -0.3 or above? satisfied

Item KYFGTAKARVDFCARDRSELSLKEGDIIKILNKKGQQGWWRGEIYGRVGWFPANYVEEDYS [Y10V] with abundance fitness of -0.3 or above? satisfied
